Cited source: PubChem BioAssay AID488847

target: Beta-adrenergic receptor kinase 1 (Homo sapiens) (UniProt P25098); assay: compounds blocking aptamer binding on GRK2 – biochemical, human GRK2, bead flow cytometry, HTS, primary screen (AID 488847); details: FAM-aptamer displacement from GRK2, at 10 µM;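 further: median bead fluorescence of bound FAM aptamer so fluorescent compounds give negative values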
Sequence (P25098 whole entry, looked up): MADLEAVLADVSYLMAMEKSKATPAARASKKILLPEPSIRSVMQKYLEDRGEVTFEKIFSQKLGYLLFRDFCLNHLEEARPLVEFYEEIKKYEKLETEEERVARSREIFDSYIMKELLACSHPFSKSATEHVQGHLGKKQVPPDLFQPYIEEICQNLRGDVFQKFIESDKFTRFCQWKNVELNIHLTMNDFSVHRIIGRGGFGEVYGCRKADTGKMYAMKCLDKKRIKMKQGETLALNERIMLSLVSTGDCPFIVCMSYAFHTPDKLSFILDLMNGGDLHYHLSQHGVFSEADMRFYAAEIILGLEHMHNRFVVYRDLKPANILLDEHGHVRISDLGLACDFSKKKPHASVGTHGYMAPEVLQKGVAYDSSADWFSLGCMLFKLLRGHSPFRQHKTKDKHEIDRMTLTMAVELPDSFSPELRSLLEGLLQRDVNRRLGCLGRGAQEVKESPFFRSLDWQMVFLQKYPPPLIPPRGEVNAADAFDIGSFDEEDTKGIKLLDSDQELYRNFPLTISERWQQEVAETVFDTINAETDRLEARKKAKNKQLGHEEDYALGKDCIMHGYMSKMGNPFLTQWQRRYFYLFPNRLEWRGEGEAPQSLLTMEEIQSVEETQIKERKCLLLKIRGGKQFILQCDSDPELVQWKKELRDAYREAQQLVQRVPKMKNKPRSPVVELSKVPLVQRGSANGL
In all, about 330,000 compounds went through this assay and about 1,900 (0.58%) were called active.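 How the source made its calls: active means inhibition of aptamer binding above 40%, roughly 3 SD of noise, on plates passing a quality check; inactive means the rest.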 The full list was thinned out, with actives kept by preference.
Classes used: active, inactive

structure_smiles=COc1ccc(Cn2c(=S)[nH]c3cc(C(=O)N4CCCCC4)ccc3c2=O)cc1 assigned_category=inactive
structure_smiles=CC(=O)c1ccc(N2CCN(C(=O)CCc3ccccc3)CC2)cc1 assigned_category=inactive
structure_smiles=O=C(NCC12CC3CC(C1)CC(CNC(=O)N1CCCC1)(C3)C2)N1CCCC1 assigned_category=active
structure_smiles=CCOc1cc2[nH]c(=S)n(Cc3ccc(C(=O)N4CCN(C)CC4)cc3)c(=O)c2cc1OCC assigned_category=inactive
structure_smiles=C=CCNC(=O)CC12CC3CC(C1)CC(CC(=O)NCC=C)(C3)C2 assigned_category=inactive
structure_smiles=CCn1cnc2scc(-c3ccc(C)c(C)c3)c2c1=O assigned_category=inactive
structure_smiles=COc1ccc(NC(=O)Cn2ncn3c(cc4ccccc43)c2=O)c(OC)c1OC assigned_category=inactive
structure_smiles=CCOC(=O)CN(C(=O)CN1CCOCC1)c1ccc(Br)cc1 assigned_category=inactive
structure_smiles=NC(=O)C1CCN(C(=O)c2ccc3c(=O)n(Cc4cccc(Br)c4)c(=S)[nH]c3c2)CC1 assigned_category=active
structure_smiles=O=c1c([N+](=O)[O-])cccn1Cc1ccc(F)cc1Cl assigned_category=inactive

----------
molecular target: Beta-adrenergic receptor kinase 1 (Homo sapiens) (UniProt P25098); test: compounds blocking aptamer binding on GRK2 – biochemical, human GRK2, bead flow cytometry, HTS, primary screen (AID 488847); conditions: FAM-aptamer displacement from GRK2, at 10 µM;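 further: median bead fluorescence of bound FAM aptamer so fluorescent compounds give negative values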
The campaign covered roughly 330,000 compounds. About 1,900 (0.58%) were called active.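 The calls were made as follows: active = inhibition of aptamer binding above 40%, roughly 3 SD of noise, on plates passing a quality check; inactive = the rest.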 What follows is part of a selection rich in actives, with near analogues and random picks from the rest.
Classes used: active, inactive

compound=Cc1ccc(OCCNC(=O)CCNS(=O)(=O)c2ccc(Br)cc2)cc1 assigned_category=inactive
compound=CS(=O)(=O)c1ccc(-c2nnn(CC(=O)Nc3ccc4c(c3)OCCO4)n2)cc1 assigned_category=inactive
compound=O=C(/C=C/c1ccc(N2CCOCC2)cc1)c1ccccc1 assigned_category=inactive
compound=O=C(O)c1ccc2c(c1)C(=O)N(c1ccc(/C=C/C(=O)c3ccccc3)cc1)C2=O assigned_category=active
compound="Cc1ccc(C(C)NC(=O)Cn2nc(C)c([N+](=O)[O-])c2C)cc1 (stereo not given)" assigned_category=inactive
compound=COc1ccccc1NC(=O)CSc1nc2sc3c(c2c(=O)n1-c1ccccc1)CCN(C)C3 assigned_category=active
compound="O=C(NC1C2CC3CC(C2)CC1C3)c1ccc(N2CCNCC2)c([N+](=O)[O-])c1 (stereo not given)" assigned_category=active
compound="CC(NCc1cccs1)C(=O)Nc1cc(Cl)cc(Cl)c1 (stereo not given)" assigned_category=inactive
compound=CCOc1ccc(-n2c(SCC(=O)OC)nc3sc4c(c3c2=O)CCN(C)C4)cc1 assigned_category=inactive
compound=CCOc1ccc(-n2c(SCC(=O)Nc3ccc(OC)cc3)nc3sc4c(c3c2=O)CCN(C)C4)cc1 assigned_category=inactive

----------
target: Beta-adrenergic receptor kinase 1 (Homo sapiens); assay: compounds blocking aptamer binding on GRK2 – biochemical, human GRK2, bead flow cytometry, HTS, primary screen (AID 488847); conditions: FAM-aptamer displacement from GRK2, at 10 µM, hits give high values;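 further: median bead fluorescence of bound FAM aptamer so fluorescent compounds give negative values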
Among all 330,000 compounds or so, about 1,900 (0.58%) were called active. Shown is part of a subset that was picked to be rich in actives.
Threshold rule: inhibition of aptamer binding greater than or equal to 3% is satisfied; below that, not satisfied.

molecule=Cn1c(=O)[nH]c(=O)c2c1nc(N1CCN(CCO)CC1)n2CCSc1nc2ccccc2s1 assigned_category="not satisfied"
molecule="CC(Sc1cccc[n+]1[O-])C(=O)Nc1cccc(S(=O)(=O)N2CCOCC2)c1 (centres undefined)" assigned_category="not satisfied"
molecule=CC(=O)c1c(C)[nH]c(C(=O)N2CCN(S(=O)(=O)c3ccc(F)c(F)c3)CC2)c1C assigned_category="not satisfied"
molecule=O=C(NNc1ncnc2c1cnn2-c1ccccc1)c1ccco1 assigned_category=satisfied
molecule=Cn1c(=O)[nH]c(=O)c2c1nc(N1CCN(C(c3ccccc3)c3ccccc3)CC1)n2CCO assigned_category=satisfied
molecule=Cc1cc(OCC(=O)N(C)c2c(N)n(Cc3ccccc3)c(=O)[nH]c2=O)c(C(C)C)cc1Cl assigned_category="not satisfied"
molecule=C1=C(CCNc2ncnc3c2cnn3-c2ccccc2)CCCC1 assigned_category="not satisfied"
molecule=CCOC(=O)c1ccc(N/C(=N/S(=O)(=O)c2ccccc2)c2ccccc2)cc1 assigned_category="not satisfied"
molecule=O=c1[nH]nc(Cc2ccccn2)c2ccccc12 assigned_category="not satisfied"
molecule=Cc1csc(=O)n1CC(=O)OCC(=O)N(CC(C)C)c1c(N)n(Cc2ccccc2)c(=O)[nH]c1=O assigned_category=satisfied
molecule="CCC(C)(C(=O)NC1CCCCC1)N(C)C(=O)c1ccc2c(c1)OCO2 (centres undefined)" assigned_category=satisfied
molecule=O=C1CCCN1C(=O)COc1ccc([N+](=O)[O-])cc1 assigned_category="not satisfied"
molecule=Cc1ccc(NC(=O)COc2ccc(/C=C3/NC(=O)NC3=O)cc2)cc1 assigned_category="not satisfied"
molecule=CC(C)CN(C(=O)COC(=O)c1ccc(Cl)c(N)c1)c1c(N)n(Cc2ccccc2)c(=O)[nH]c1=O assigned_category="not satisfied"
molecule=CCSc1nc(O)c(C(c2cccc(OC)c2)c2c(O)nc(SCC)[nH]c2=O)c(=O)[nH]1 assigned_category=satisfied
molecule=CSc1ccc(/C=C2\NC(=O)NC2=O)cc1 assigned_category=satisfied
molecule="CC1O[C@H](OC2C(COC3OC(CO)C(O)[C@H](O)C3O)OC(OC3CC[C@]4(C)C(CC[C@@]5(C)[C@@H]4C=C[C@]46OC[C@@]7(CCC(C)(C)C[C@H]74)C(O)C[C@@]56C)C3(C)C)C(O)C2O)C(O)C(O)C1O (some centres undefined)" assigned_category="not satisfied"

----------
Examples of compounds with documented inhibition of aptamer binding follow.
molecular target: Beta-adrenergic receptor kinase 1 (Homo sapiens) (UniProt P25098); assay: compounds blocking aptamer binding on GRK2 – biochemical, human GRK2, bead flow cytometry, HTS, primary screen (AID 488847); details: FAM-aptamer displacement from GRK2, at 10 µM, hits give high values;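 further: median bead fluorescence of bound FAM aptamer so fluorescent compounds give negative values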
In all, about 330,000 compounds went through this assay and about 1,900 (0.58%) were called active. For the sample, actives were picked, then their nearest neighbours and some compounds at random.
observation_type: inhibition of aptamer binding (%)

compound=C/C(=N\NC(=S)NCc1ccccc1)C1CCCCC1 measured_value=1
compound=COc1ccc(Cl)cc1NC(=O)CCS(=O)(=O)c1ccc(Br)cc1 measured_value=89
compound=COc1ccc(S(=O)(=O)N2CCOCC2)cc1C(=O)NC1CCCCC1 measured_value=3
compound=O=C(Cc1ccc(Br)cc1)NCCc1ccccc1 measured_value=1
compound=O=C(CCS(=O)(=O)c1ccc(Br)cc1)NCCc1ccc(Cl)cc1 measured_value=49
compound=CC(C)(C)Nc1nc(-c2ccccn2)nc2ccccc12 measured_value=0
compound=S=c1nc2ccccc2c2nc(-c3cccnc3)[nH]n12 measured_value=0
compound="Cc1cccc(N(C(=O)c2sc(C)nc2C)C(C(=O)NCC2CCCO2)c2ccccc2)c1 (configuration not stated)" measured_value=1
compound=COc1cccc(OC)c1C(=O)Nc1ccc2c(c1)n(C)c(=O)n2C measured_value=1
compound=Cc1ccc(S(=O)(=O)CCC(=O)OCC(=O)NCCc2ccc(S(N)(=O)=O)cc2)cc1 measured_value=0
compound=COc1cc(NC(=O)c2[nH]cnc2C(N)=O)cc(C(=O)Nc2cccc(C(F)(F)F)c2)c1 measured_value=0
compound=COc1ccc(Cl)cc1NC(=O)CCS(=O)(=O)c1cc2c(cc1C)NC(=O)CO2 measured_value=80
compound=COc1ccc(NC(=O)CCS(=O)(=O)c2cc3c(cc2Cl)NC(=O)CO3)cc1OC measured_value=0
compound=Fc1ccc(CNc2nc3ccccc3n3nnnc23)cc1 measured_value=2
compound=COc1ccc(CCNC(=O)c2ccc(CS(=O)(=O)c3ccc(Br)cc3)o2)cc1OC measured_value=1
compound=COc1ccc(CNc2nc(NCc3ccc(OC)cc3)c3ncn(C4CCCC4)c3n2)cc1 measured_value=0
compound="CCC1Oc2ccccc2N(CC(=O)NCCCN2CCN(CC)CC2)C1=O (configuration not stated)" measured_value=0
compound="O=C1c2ccccc2C2=Nc3ccccc3SC(c3ccccc3F)C12 (configuration not stated)" measured_value=0
compound=CC(C)CC(=O)Nc1ccc(Cc2ccncc2)cc1 measured_value=0
compound=O=C(NCc1cccc(Cl)c1)C1CCN(c2nnc(N3CCCC3=O)s2)CC1 measured_value=0
compound="C=C(C)C(=O)Nc1cccc(C2=NOC3(C2)C[C@H](C(N)=O)N(C(=O)C(c2ccccc2)c2ccccc2)C3)c1 (some centres not stated)" measured_value=91
compound=Cc1cc2c(cc1S(=O)(=O)CCC(=O)NCc1ccccc1)OCC(=O)N2 measured_value=2
